# Subject of test: Cbl-b (Homo sapiens, UniProt Q13191)
# Sequence (Q13191 36-427): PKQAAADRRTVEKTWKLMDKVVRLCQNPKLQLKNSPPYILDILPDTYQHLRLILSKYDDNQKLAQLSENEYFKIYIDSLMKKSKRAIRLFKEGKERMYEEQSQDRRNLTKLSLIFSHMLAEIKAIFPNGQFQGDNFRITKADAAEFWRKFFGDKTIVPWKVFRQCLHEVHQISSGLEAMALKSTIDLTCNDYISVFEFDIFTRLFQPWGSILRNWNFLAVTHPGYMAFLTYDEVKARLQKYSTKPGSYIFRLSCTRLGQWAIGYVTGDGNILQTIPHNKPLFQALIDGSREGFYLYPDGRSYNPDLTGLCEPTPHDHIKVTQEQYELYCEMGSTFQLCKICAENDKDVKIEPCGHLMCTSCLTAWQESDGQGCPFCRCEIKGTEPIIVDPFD
# Method description: Cbl-b activity assay (Cbl-b inhibition assay), TR-FRET of Cbl-b interaction with UbcH5B-Ub
# Format: biochemical
# Experimental parameters: assay buffer with 100 mM NaCl, 60 nM Src kinase; read-out: Cbl-b activity IC50
pIC50: −log10 of the molar value.
Parameter: pIC50

C[C@H](Cc1nncn1C)c1cccc(NC(=O)c2cccc(C(C)(C)C)n2)c1; > 7.00
Cn1cnnc1CC1(c2cccc(N3Cc4c(cc(CN5C6CCC5CC6)cc4C(F)(F)F)C3=O)c2)COC1; > 7.00
Cn1cnnc1CC1(c2cccc(N3Cc4c(cc(C(O)c5ccccc5)cc4C(F)(F)F)C3=O)c2)COC1 (stereo not shown); > 7.00
C[C@H](Sc1nncn1C)c1cccc(NC(=O)c2cc3cc(OCc4ccn[nH]4)ccc3cn2)c1; 6.52 to 7.00
COc1ccc2c(c1)CN(Cc1cc3c(c(C(F)(F)F)c1)CN(c1cccc(C4(Cc5nncn5C)COC4)c1)C3=O)C2; > 7.00

# input Item C[C@H](Cc1nncn1C)c1cccc(N2Cc3c(Br)cccc3C2=O)c1 has what recorded pIC50?
# output 6.52 to 7.00

# input Item Cn1cnnc1[C@@H]1C[C@@H]1c1cccc(N2Cc3c(ccnc3C(F)(F)F)C2=O)c1 has what recorded pIC50?
# output 6.00 to 6.52

----------
# System: T-cell
# Method description: CD25 cell surface staining on T-cells stimulated with anti-CD3 antibody alone (Biological Example 2)
# Assay type: cell-based, human
# Experimental parameters: T-cell; fold change over baseline; 8 μM Cbl-b inhibitor; primary human total T-cells; read-out: CD25 staining Anti-CD3 stimulation
Reported fold induction at 8 µM values for a set of compounds

Recorded results for 3 compounds are shown here.
C[C@H](Cc1nncn1C)c1cccc(NC(=O)c2[nH]nc3c2CCCC3)c1 [Compound 327]; 0.801 to 1
Cn1cnnc1[C@H]1CC[C@H]1c1cccc(N2Cc3c(cccc3C(F)(F)F)C2=O)c1 (racemic) [Compound 283]; < 0.6
Cc1cc(C(=O)Nc2cccc([C@H](C)Sc3nncn3C)c2)nc(C(F)(F)F)c1 [Compound 65]; > 1

# input Item C[C@H](Cc1nncn1C)c1cc(NC2COC2)cc(N2Cc3c(cccc3C(F)(F)F)C2=O)c1 [Compound 350] has what recorded fold induction at 8 µM?
# output 0.801 to 1

----------
# Subject of test: UniProtKB Q13191
# Method description: Cbl-b activity assay (Cbl-b inhibition assay), TR-FRET of Cbl-b interaction with UbcH5B-Ub
# Format: biochemical
# Experimental parameters: assay buffer with 100 mM NaCl, 60 nM Src kinase; read-out: Cbl-b activity IC50
Reported IC50 values for a set of molecules

Recorded results for 5 molecules are shown here.
C[C@@H]1CN(Cc2cc3c(c(C(F)(F)F)c2)CN(c2cccc(-c4c(-c5nncn5C)cnn4C)c2)C3=O)C[C@H](C)O1 [Compound 525]; < 100 nM
Cc1cc(C(=O)Nc2cccc(C3(Cc4nncn4C)COC3)c2)n2nc(C(F)(F)F)cc2n1 [Example 598]; 100 to 300 nM
Cn1cnnc1[C@H](F)[C@@](C)(F)c1cccc(N2Cc3c(cc(C4CC4)cc3C(F)(F)F)C2=O)c1 (stereo in doubt) [Compound 483]; 100 to 300 nM
CNC(=O)COc1cccc2nc(C(=O)Nc3cccc([C@H](C)Sc4nncn4C)c3)ccc12 [Compound 310]; 301 to 1000 nM
C[C@H](Sc1nncn1C)c1cccc(NC(=O)c2cc(C(=O)N3CC[C@H](N(C)C)C3)ccn2)c1 [Compound 160]; 3000 to 10000 nM

# input Param readout= IC50; system= UniProtKB Q13191; entry= CC(c1cc(C(=O)Nc2cccc(C3(Cc4nncn4C)COC3)c2)nc(C2CC2)n1)N1CCC2(CC2)C1 (stereo in doubt) [Example 592a] ; returns value.
# output < 100 nM

# input Param readout= IC50; system= UniProtKB Q13191; entry= Cc1cc(C(=O)Nc2cc([C@H](C)Sc3nncn3C)ccn2)nc(C(F)(F)F)c1 [Compound 103] ; returns value.
# output 301 to 1000 nM

Source listed as patent US20220324835A1.
